This collection of values is drawn from patent US20260109707A1.

Target: progesterone receptor (Homo sapiens, UniProt P06401)
Sequence (P06401 679-933 limits assumed): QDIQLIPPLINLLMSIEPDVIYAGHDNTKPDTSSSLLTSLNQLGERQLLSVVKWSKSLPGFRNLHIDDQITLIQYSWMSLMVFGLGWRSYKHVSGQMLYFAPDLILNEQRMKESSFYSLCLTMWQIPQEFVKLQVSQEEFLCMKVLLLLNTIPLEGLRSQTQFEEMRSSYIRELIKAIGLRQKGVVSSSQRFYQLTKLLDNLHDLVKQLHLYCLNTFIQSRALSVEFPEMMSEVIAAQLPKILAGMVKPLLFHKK
Test: PR Human Progesterone NHR Binding (Agonist Radioligand) Assay
Conditions: binding to the progesterone receptor, cytosolic fractions of T47D cells, Table 12
pKd: −log10 of the molar value.
Property: pKd; scope: individual molecules

MOLECULE: CCNC(=O)C[C@@H]1N=C(c2ccc(OCC3CN(c4ccc(C(=O)N[C@H]5CC[C@H](Oc6ccc(C#N)c(Cl)c6)CC5)nn4)C3)cc2)c2c(sc(C)c2C)-n2c(C)nnc21 [I-29]
pKd: 6.30 to 7.30

MOLECULE: Cc1sc2c(c1C)C(c1ccc(Cl)cc1)=N[C@@H](CC(=O)NCCOCCOCCOC1CCN(c3ccc(C(=O)N[C@H]4CC[C@H](Oc5ccc(C#N)c(Cl)c5)CC4)nn3)CC1)c1nnc(C)n1-2 [I-2]
pKd: 6.30 to 7.30

MOLECULE: CCNC(=O)C[C@@H]1N=C(c2ccc(N3CCC(OC4CCN(c5ccc(C(=O)N[C@H]6CC[C@H](Oc7ccc(C#N)c(Cl)c7)CC6)nn5)CC4)CC3)cc2)c2c(sc(C)c2C)-n2c(C)nnc21 [I-44]
pKd: 6.30 to 7.30
